Where a SMILES comes first, the peptide text is derived from it. [ ]: non-standard residue; d: D form. hPhe = N[C@@H](CCc1ccccc1)C(=O)O
Let's go through some pIC50 measurements on chymotrypsin (Bos taurus) together.
On this scale, pIC50 is minus log10 of a concentration expressed in M (mol/L).

Example results:
Form field pIC50 for item N[C@@H](Cc1ccccc1)C(=O)N[C@@H](CCc1ccccc1)C(=O)N[C@@H](Cc1ccccc1)C(=O)O [compound 7, H-Phe-hPhe-Phe-OH] (H-Phe-[hPhe]-Phe-OH) on chymotrypsin (Bos taurus): 3.73

Form field pIC50 for item N[C@@H](Cc1ccccc1)C(=O)N[C@@H](Cc1ccccc1)C(=O)N[C@@H](Cc1ccccc1)C(=O)O [compound 2, H-Phe-Phe–Phe-OH] (H-Phe-Phe-Phe-OH) on chymotrypsin (Bos taurus): 3.73

Further cases:
Form field pIC50 for item CC(C)C[C@H](NC(=O)[C@H](CC(C)C)NC(=O)[C@@H](N)Cc1ccccc1)C(=O)O [compound 5, H-Phe-Leu–Leu-OH] (H-Phe-Leu-Leu-OH) on chymotrypsin (Bos taurus): 3.74

* * *

List of Found 20Si values.
STUDY SYSTEM: 20Si (Homo sapiens, UniProt P28062+P28065+P40306)
Construct: purchased www.vivabioscience.com (Basepoint Business Centre, United Kingdom)
METHOD DESCRIPTION: Specificity of SPRI biosensor: 20Si determination in the presence of an interferent
Type: binding
ASSAY CONDITIONS: tripeptide as receptor via cysteamine linker; 20Sc 2.8 μg mL−1, ratio 20Si vs. 20Sc 1:1; added 20Si 2.80 μg mL−1; 95% confidence limits, 12 measurements
Experimental: SPRI measurements for the protein biosensor array were performed as described elsewhere.[8],[11] Briefly, the measurements were performed at a fixed angle of incident light and the reflectivity was simultaneously measured cross an entire chip surface. The contrast values obtained for all pixels across a particular sample single spot were integrated. The signal was measured twice on the basis of registered images, after immobilization of the inhibitor and after immunoproteasome interaction. […]
Where a SMILES comes first, the peptide text is derived from it. [ ]: non-standard residue; d: D form. Nle = CCCC[C@H](N)C(=O)O
Supply the numeric figure in µg/mL, leaving out any unit text.

Example results:
Value of Found 20Si reported for the compound CC(C)C[C@H](NC(=O)[C@H](Cc1ccccc1)NC(=O)[C@@H](N)CC(C)C)C(=O)O [compound 10, H-Leu-Phe-Leu-OH] (H-Leu-Phe-Leu-OH) is 2.89

Value of Found 20Si reported for the compound CC(C)C[C@H](NC(=O)[C@H](CC(C)C)NC(=O)[C@@H](N)Cc1ccccc1)C(=O)O [compound 5, H-Phe-Leu–Leu-OH] (H-Phe-Leu-Leu-OH) is 2.97

Value of Found 20Si reported for the compound CC(C)C[C@H](NC(=O)[C@@H](N)CC(C)C)C(=O)N[C@@H](Cc1ccccc1)C(=O)O [compound 8, H-Leu-Leu-Phe-OH] (H-Leu-Leu-Phe-OH) is 2.88

Further cases:
Value of Found 20Si reported for the compound CCCC[C@H](NC(=O)[C@H](CC(C)C)NC(=O)[C@@H](N)Cc1ccccc1)C(=O)O [compound 11, H-Phe-Leu-nLeu-OH] (H-Phe-Leu-[Nle]-OH) is 2.99

The reported numbers originate from paper PMC5352758.
